Recorded values, source the RNAGym collection of RNA variant scans (doi:10.1002/anie.201605470).

B1: Osa-1-4 twister ribozyme (parent)
chain: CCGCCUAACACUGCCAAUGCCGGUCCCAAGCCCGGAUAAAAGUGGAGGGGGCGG

- Variants of: B1
- assay summary: self-cleavage, relative activity (ratio to wild type); higher = more cleavage; co-transcriptional
property: self-cleavage
Reply with just the number.

Prompt: Bench note: what self-cleavage did CCGCCUAACACUGCCAAUGCCGGUCCCAAGCCCGGAUAUUAGUGGAGGGGGCGG [A39U A40U] show?
Completion: 0.64

Prompt: Bench note: what self-cleavage did CCGCCUAACACUGCCAAUGCCCGUCCCAAGCCCGGAUAAAACUGGAGGGGGCGG [G22C G42C] show?
Completion: 0.04

Prompt: Bench note: what self-cleavage did CCGCCUAACACUGCCAAUGCCGGUCCCAAGCCCGGAUAUAAGUGGAGGGGGCGC [A39U G54C] show?
Completion: 0.73

Prompt: Bench note: what self-cleavage did CCGCCUAACACUGCCAUUGCCGGUCCCAAGCCCGGAUAGAAGUGGAGGGGGCGG [A17U A39G] show?
Completion: 1.03

Prompt: Bench note: what self-cleavage did CCGCCUAACACUGCCAAUGCCGGUCCCAGGCCCGGAUAAAAGUGGAGGGGGCGG [A29G] show?
Completion: 0.4

Prompt: Bench note: what self-cleavage did CCGCCUAACACUUCCAAUGCCGGUCCCAAGCCCGGAUAAAAGUGGAGGGGGCCG [G13U G53C] show?
Completion: 0.01

Prompt: Bench note: what self-cleavage did CCGCCUAACACUGCCAAUGCUGGUCCCAAGCCCGGAUAAGAGUGGAGGGGGCGG [A40G C21U] show?
Completion: 0.79

Prompt: Bench note: what self-cleavage did CCGCCUAACACUGCCAAUGCCGGUCCCAAGCCCGGAUAAACGUGGAGGGGGCCG [A41C G53C] show?
Completion: 0.08

Prompt: Bench note: what self-cleavage did CCGCCUAACACUGCCAAUUCCGGUCCAAAGCCCGGAUAAAAGUGGAGGGGGCGG [C27A G19U] show?
Completion: 0.04

Prompt: Bench note: what self-cleavage did CCGCCUAACACUGCCAAUGCCGGUCCCAAGCCCGUAUAAAAGUGGAUGGGGCGG [G35U G47U] show?
Completion: 0.14

Prompt: Bench note: what self-cleavage did CCGCCUAUCACUGCCAAUGCCGGUCCCAAGCCCGGAUAAAAGUGGAGGGUGCGG [A8U G50U] show?
Completion: 0.35

Prompt: Bench note: what self-cleavage did CCGCCUAACACUGCCACUGCCGGUCCCAAGCCCGGAUAAAAGUGGCGGGGGCGG [A17C A46C] show?
Completion: 0.05

Prompt: Bench note: what self-cleavage did CCGCCUAACACUGCCAAUGCCGGUCCCAAGCCCCGAUAAAAGCGGAGGGGGCGG [G34C U43C] show?
Completion: 0.1

Prompt: Bench note: what self-cleavage did CCGCCUAACACUGCCAAUGCCGGUACCAAGCCCGGAUAAAAGUGGAGGAGGCGG [C25A G49A] show?
Completion: 0.13

Prompt: Bench note: what self-cleavage did CCGCCUAACACUGCCAAUGCCGGUCCCAAGCCCGGAUAAAAGUCGAUGGGGCGG [G44C G47U] show?
Completion: 0.16

Prompt: Bench note: what self-cleavage did CCGCCUAACACUGCCAAUGCCGUUCACAAGCCCGGAUAAAAGUGGAGGGGGCGG [C26A G23U] show?
Completion: 0.02

Prompt: Bench note: what self-cleavage did CCGCCUAACACUGCCAUUGCCGGUCCCAAGCCCGGAUAAUAGUGGAGGGGGCGG [A17U A40U] show?
Completion: 0.63

Prompt: Bench note: what self-cleavage did CCGCCUAACGCUGCCAAUGCCGGUCCCAAGCCCGGAUAAACGUGGAGGGGGCGG [A10G A41C] show?
Completion: 0.39
